- Target Entity: purified Z-AAT protein (Homo sapiens, UniProt P01009, E366K)
- Construct: Purified Z-AAT protein from human plasma
- Sequence (P01009 25-418 E366K): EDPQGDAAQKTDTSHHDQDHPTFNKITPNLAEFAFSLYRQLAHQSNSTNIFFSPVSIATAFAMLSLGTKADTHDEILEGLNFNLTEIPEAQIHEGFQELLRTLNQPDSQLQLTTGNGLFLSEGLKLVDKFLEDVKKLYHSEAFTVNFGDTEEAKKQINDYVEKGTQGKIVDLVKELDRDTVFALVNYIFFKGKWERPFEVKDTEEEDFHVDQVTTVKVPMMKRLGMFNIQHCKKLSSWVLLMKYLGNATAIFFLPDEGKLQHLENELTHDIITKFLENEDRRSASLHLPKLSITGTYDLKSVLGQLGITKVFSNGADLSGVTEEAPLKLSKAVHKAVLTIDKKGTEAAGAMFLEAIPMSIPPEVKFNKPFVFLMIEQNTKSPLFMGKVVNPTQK
- Method Description: Biochemical Assay (Z-AAT Elastase Activity Assay)
- Reported Conditions: purified Z-AAT pre-incubated with compound 1 hour, then hNE; N.D. = activity not detected up to 30 μM
pIC50: −log10 of the molar value.
Would you mind telling me the reported pIC50 of each entry?

Prompt: GET pIC50 | system: purified Z-AAT protein (Homo sapiens, UniProt P01009, E366K) | item: CC(C)(CCO)c1c(-c2ccc(C(=O)O)cc2)c2c(O)cccc2n1-c1ccc(F)cc1
Completion: < 5.30

Prompt: Fetch value of pIC50 on purified Z-AAT protein (Homo sapiens, UniProt P01009, E366K) for O=C(O)c1ccc(-c2c3c(O)cccc3n(-c3ccc(F)cc3)c2[C@H]2C[C@@H](O)C2)cc1 .
Completion: < 4.52

Prompt: Give the observed pIC50 of N#CCC1(c2c(-c3ccc(C(=O)O)cc3)c3c(O)cc(F)cc3n2-c2ccc(F)c(F)c2)CCC1 for purified Z-AAT protein (Homo sapiens, UniProt P01009, E366K).
Completion: > 5.70

Prompt: Give purified Z-AAT protein (Homo sapiens, UniProt P01009, E366K) pIC50 for the following compound: O=C(O)c1ccc(-c2c(C3CCOCC3)n(-c3ccc(F)cc3)c3cccc(O)c23)s1
Completion: < 5.30

Prompt: Answer with pIC50 of O=C(NO)c1ccc(-c2c(C3CCOCC3)n(-c3ccc(F)c(F)c3)c3cccc(O)c23)cc1F measured for purified Z-AAT protein (Homo sapiens, UniProt P01009, E366K).
Completion: < 4.52

Prompt: Give pIC50; test system purified Z-AAT protein (Homo sapiens, UniProt P01009, E366K); compound COCC(C)(C)c1c(-c2ccc(C(=O)O)c(F)c2F)c2c(O)cc(F)cc2n1-c1ccc(F)c(OC)c1
Completion: < 5.30

Prompt: Quote purified Z-AAT protein (Homo sapiens, UniProt P01009, E366K) pIC50 for entry O=C(O)c1ccc(-c2c(C3CCOCC3)n(-c3ccc(F)cc3)c3cc(F)cc(O)c23)cc1 .
Completion: < 5.30

Prompt: Give purified Z-AAT protein (Homo sapiens, UniProt P01009, E366K) pIC50 for the following compound: CC(C)(CC#N)c1c(-c2ccc(C(=O)O)cc2F)c2c(O)c(F)ccc2n1-c1ccc(F)cc1
Completion: > 5.70

Prompt: Provide pIC50, tested on purified Z-AAT protein (Homo sapiens, UniProt P01009, E366K), for Cc1cc(-n2c(C3CCOCC3)c(-c3cc(F)c(C(=O)O)c(F)c3)c3c(O)cc(F)cc32)ccc1F .
Completion: 5.30 to 5.70

Prompt: # lookup: purified Z-AAT protein (Homo sapiens, UniProt P01009, E366K) pIC50, key = CCc1cc(-c2c(C(C)(C)CC#N)n(-c3ccc(F)c(C)c3)c3cc(F)cc(O)c23)ccc1C(=O)O
Completion: > 5.70

Prompt: Write down measured pIC50 (purified Z-AAT protein (Homo sapiens, UniProt P01009, E366K)) for this compound. O=C(O)c1ccc(-c2c(C3CCOCC3)n(-c3ccc(F)c(F)c3)c3cc(F)cc(O)c23)c(F)c1
Completion: > 5.70

Prompt: Tell me pIC50 of O=C(O)c1ccc(-c2c(C(=O)N3CCCC3)n(-c3ccc(F)cc3)c3cccc(O)c23)cc1 when tested on purified Z-AAT protein (Homo sapiens, UniProt P01009, E366K).
Completion: < 4.52

Prompt: Please tell me the measured pIC50 for O=C(O)c1cc(-c2c(C3CCOCC3)n(-c3ccc(F)cc3)c3cccc(O)c23)ccc1C(F)(F)F ; system: purified Z-AAT protein (Homo sapiens, UniProt P01009, E366K).
Completion: < 4.52

Prompt: State pIC50 (purified Z-AAT protein (Homo sapiens, UniProt P01009, E366K)) of COCC(C)(C)c1c(-c2ccc(C(=O)O)cc2)c2c(O)cc(F)cc2n1-c1ccc(F)c(F)c1 .
Completion: > 5.70

Prompt: Fill in pIC50 for COCC(C)c1c(-c2ccc(C(=O)O)cc2)c2c(O)cc(F)cc2n1-c1ccc(F)c(F)c1 (single isomer, unassigned) [Compound 280] tested with purified Z-AAT protein (Homo sapiens, UniProt P01009, E366K).
Completion: > 5.70

The reported numbers originate from patent US20230159502A1.
